# Tested on: HeLaS3 Zellen
# test_summary: Cytotoxicity test on cultured human tumour cells (AlamarBlue)
# Assay type: cell-based
# condition_label: HeLa S3, 72 h, read-out: HELA
# Source text: Die Wirkung der erfindungsgemäBen Verbindungen wurde im Cytotoxizitätstest an kultivierten humanen Tumorzellen und/oder in einer FACS-Analyse, beispielsweise an HeLaS3-Zellen, bestimmt. Messung der Cytotoxizität an kultivierten humanen Tumorzellen […]
outcome_measure: IC50

Quick one: IC50 of CC[C@@H]1C(=O)N(C)c2cnc(Nc3ccc(C(=O)NC4CCN(C)CC4)cc3OC)nc2N1C1CCCC1 [compound 46] ?
12 nM
